tgt: human activated kallikrein enzyme (Homo sapiens)
experiment notes: Inhibition of human activated plasma kallikrein, fluorogenic PFR-AMC substrate, 500 pM enzyme format
Type: biochemical
test parameters: 500 pM activated kallikrein; 300 μM PFR-AMC; 30 min preincubation; 10 min room temperature; pH 7.5; read-out: Primary Dose Response Assay: Average EC50
Answer each item with its documented EC50.

Give reported EC50 value for Cc1cc2c(N)nccc2c(C)c1CNC(=O)c1cnn(Cc2cn3c(C)c(Br)ccc3n2)c1 < 1 nM

Give reported EC50 value for Cc1cc2c(N)nccc2c(C)c1CNc1cc(N(C)Cc2ccc(Cn3cccn3)cc2)cnn1 < 1 nM

Give reported EC50 value for Cc1cc2c(N)nccc2c(C)c1CNc1cc(OCc2cc3cc(C4CC4)cc(N4CCOC4=O)n3n2)ncn1 < 1 nM

Give reported EC50 value for Cc1cc2c(N)nccc2c(C)c1CNc1cc(OC(C)c2ccc(Cn3cccn3)cc2)cnn1 (single isomer, unassigned) [Example 277] 10 to 100 nM

Give reported EC50 value for Cc1cc2c(N)nccc2c(C)c1CNc1ccc2nnc(Cc3ccc4ncc(Cl)cc4c3)n2c1 100 to 1000 nM

Give reported EC50 value for Cc1cc2c(N)nccc2c(C)c1CNC(=O)c1cnn(Cc2ccc3c(-n4cccn4)cccc3c2)c1 < 1 nM

Give reported EC50 value for COc1cccc(Cn2cc(C(=O)NCc3c(C)cc4c(N)nccc4c3C)cn2)c1 10 to 100 nM

---

tgt: human activated kallikrein enzyme (Homo sapiens, UniProt P03952)
Sequence (P03952 391-638 limits assumed): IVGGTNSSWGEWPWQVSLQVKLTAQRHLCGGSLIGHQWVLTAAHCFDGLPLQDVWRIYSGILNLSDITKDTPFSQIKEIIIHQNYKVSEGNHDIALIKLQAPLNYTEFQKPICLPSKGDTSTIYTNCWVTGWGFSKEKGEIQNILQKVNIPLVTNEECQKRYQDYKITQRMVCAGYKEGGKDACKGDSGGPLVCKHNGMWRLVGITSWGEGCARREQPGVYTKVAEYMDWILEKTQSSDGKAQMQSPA
Sequence (P03952 20-390 partner limits assumed): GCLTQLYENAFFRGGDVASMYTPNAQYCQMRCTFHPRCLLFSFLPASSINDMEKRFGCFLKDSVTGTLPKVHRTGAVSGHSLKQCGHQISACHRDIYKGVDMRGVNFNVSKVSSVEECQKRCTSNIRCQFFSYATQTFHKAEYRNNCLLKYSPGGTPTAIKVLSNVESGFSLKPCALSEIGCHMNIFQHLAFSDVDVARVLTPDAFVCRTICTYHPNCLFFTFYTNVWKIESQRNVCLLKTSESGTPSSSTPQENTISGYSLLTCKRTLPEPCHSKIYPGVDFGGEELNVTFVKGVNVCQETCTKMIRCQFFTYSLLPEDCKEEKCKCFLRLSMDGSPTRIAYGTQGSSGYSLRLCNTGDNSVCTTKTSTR
experiment notes: Inhibition of human activated plasma kallikrein, fluorogenic PFR-AMC substrate, 500 pM enzyme format
Assay type: biochemical
test parameters: 500 pM activated kallikrein; 300 μM PFR-AMC; 30 min preincubation; 10 min room temperature; pH 7.5; read-out: Primary Dose Response Assay: Average EC50
Experimental: Compounds were evaluated for inhibition of the human activated kallikrein enzyme in two formats of an assay employing a fluorogenic peptide substrate. […] After initiation with substrate, reactions were incubated for 10 min at room temperature and fluorescence emission at 460 nm from 380 nm excitation measured with a microplate reader. […]
pEC50: −log10 of the molar value.
Answer each item with its documented pEC50.

Give reported pEC50 value for Cc1cc2c(N)nccc2c(C)c1CNc1ncccc1NCc1cn2cc(C3CC3)ccc2n1 [Example 506] 7.00 to 8.00

Give reported pEC50 value for Cc1cc2c(N)nccc2c(C)c1CNc1cc(NCc2ccc3ncccc3c2)ncn1 [Example 337] 8.00 to 9.00

Give reported pEC50 value for Cc1cc2c(N)nccc2c(C)c1CNc1cc(NC(C)c2ccc(Cc3ccccn3)cc2)ncn1 (stereo not shown) [Example 366] > 9.00

Give reported pEC50 value for CCc1c(Cl)ccc2nc(Cn3cc(C(=O)NCc4c(C)cc5c(N)nccc5c4C)cn3)cn12 [Example 141] > 9.00

Give reported pEC50 value for Cc1cc2c(N)nccc2c(C)c1CNc1cc(OCc2nc3ccc(C4CC4)nn3n2)ncn1 [Example 391] 7.00 to 8.00

Give reported pEC50 value for Cc1cc2c(N)nccc2c(C)c1CNc1cc2c(ccn2Cc2ccc3ncccc3c2)cn1 [Example 517] 6.00 to 7.00

Give reported pEC50 value for Cc1cc2c(N)nccc2c(C)c1CNc1cc(OCc2cc(C(N)=O)c3ncc(Cl)cc3c2)ncn1 [Example 401] 8.00 to 9.00

Give reported pEC50 value for Cc1cc2c(N)nccc2c(C)c1CNc1cc(C(O)c2cn3cc(C4CC4)ccc3n2)ccn1 (stereo not shown) [Example 453] > 9.00

Give reported pEC50 value for Cc1cc2c(N)nccc2c(C)c1CNc1nccc(OCc2ccc(Cn3ccccc3=O)cc2)n1 [Example I-478] 8.00 to 9.00

Give reported pEC50 value for Cc1cc2c(N)nccc2c(C)c1CNc1cc(OCc2ccc3nccc(C)c3c2)cnn1 [Example 421, formic acid] 8.00 to 9.00

Give reported pEC50 value for Cc1cc2c(N)nccc2c(C)c1CNc1cc(OCc2cn3cc(C4CC4)cnc3n2)ncn1 [Example 262] > 9.00

Give reported pEC50 value for Cc1cc2c(N)nccc2c(C)c1CNc1cc2c(ccn2Cc2ccc3ncc(Cl)cc3c2)cn1 [Example 518] < 6.00

Give reported pEC50 value for Cc1cc2c(N)nccc2c(C)c1CNC(=O)c1cnn(Cc2ccc3cc(Br)ccc3n2)c1 [Example 69] 8.00 to 9.00

Give reported pEC50 value for CCc1cc2c(N)nccc2c(C)c1CNC(=O)c1cnn(Cc2ccccc2)c1 [Example 173] 7.00 to 8.00

Give reported pEC50 value for CCN(CC)C(=O)Cc1ccc(Cn2cc(C(=O)NCc3c(C)cc4c(N)nccc4c3C)cn2)cc1 [Example 226] > 9.00

Give reported pEC50 value for Cc1cc2c(N)nccc2c(C)c1CNc1cc(NCc2ccc3c(-c4ccccn4)cccc3c2)ncn1 [Example 241] 8.00 to 9.00

Data credit: patent US20260374754A1
